# Test system: E. coli CA-4
# assay_summary: MIC assessment (TREK Sensititre)
# Format: cell-based, Escherichia coli
# study_conditions: Escherichia coli, CA4; E. coli CA-4; read-out: MIC
# Excerpt: Bacterial strains. Multiple Amp^r strains from feces of broiler chickens without antibiotic treatment were recovered on Columbia blood Agar base (Becton, […] Dickinson and Company, Franklin Lakes, NJ) supplemented with 5% defibrinated sheep blood (Thermo Scientific™, Grand Island, NY). […]
endpoint_name: MIC

MIC value, target or system E. coli CA-4, for CN(C)[C@@H]1C(O)=C(C(N)=O)C(=O)[C@@]2(O)C(O)=C3C(=O)c4c(O)cccc4[C@@](C)(O)[C@H]3C[C@@H]12 : < 2 mg/L

The recorded MIC with E. coli CA-4 for [H]/N=C(/N)N[C@H]1[C@H](O)[C@@H](O)[C@H](O[C@@H]2O[C@@H](C)[C@](O)(C=O)[C@H]2O[C@@H]2O[C@@H](CO)[C@H](O)[C@@H](O)[C@@H]2NC)[C@@H](N/C(N)=N\[H])[C@@H]1O was < 1000 mg/L

# C[C@H]1COc2c(N3CCN(C)CC3)c(F)cc3c(=O)c(C(=O)O)cn1c23 with E. coli CA-4: MIC is < 0.25 mg/L

Test item CO/N=C(\C(=O)N[C@@H]1C(=O)N2C(C(=O)O)=C(CSc3nc(=O)c(=O)[nH]n3C)CS[C@H]12)c1csc(N)n1 ; E. coli CA-4; reported MIC was < 8 mg/L

Entry CC[C@H]1OC(=O)[C@H](C)[C@@H](O[C@H]2C[C@@](C)(OC)[C@@H](O)[C@H](C)O2)[C@H](C)[C@@H](O[C@@H]2O[C@H](C)C[C@H](N(C)C)[C@H]2O)[C@](C)(O)C[C@@H](C)C(=O)[C@H](C)[C@@H](O)[C@]1(C)O ; assay system E. coli CA-4; MIC recorded at > 4 mg/L
